- System: Nrf2 transcription factor (Nrf2-ARE)
- protocol: Nrf2-ARE induction, luciferase activity in AREc32 (MCF7 cells stably transfected with ARE-LUC)
- Format: cell-based
- experimental-conditions: Homo sapiens, 30 μM, 24 h, basal = 1, read-out: Relative Luciferase activity (response versus basal)
- Protocol: For the study of Nrf2 transcription factor, the cellular line AREC32 was used, which is characterized for being stably transfected with the reporter gene of Luciferase linked to the ARE sequence. In the presence electrophilic compounds or oxidative stress, Nrf2 factor binds to ARE sequences, activating luciferase expression and producing a proportional quantity of luciferase. […] 10 minutes later, luminescence was measured using the multi-well reader FluoStar optima (BMG labtech). […]
Lab note: anything with fold induction at 30 µM below 2 is marked criterion met; values at 2 or higher are marked criterion not met.

Recorded results for 4 compounds are shown here.
compound	assigned-category
CC(=O)NCCc1c[nH]c2ccc(OC(=O)/C=C/c3ccc(O)cc3)cc12	criterion met
CCOC(=O)C=Cc1ccccc1 [Ethyl Cinnamate, reference compound]	criterion met
CC(=O)NCCc1c[nH]c2ccc(OC(=O)/C=C/c3ccccc3)cc12	criterion met
CC(=O)NCCc1c[nH]c2ccc(OC(=O)/C=C/c3ccc([N+](=O)[O-])cc3)cc12	criterion not met

Now consider the entry below.
Task: Consider `CC(=O)NCCc1c[nH]c2ccc(OC(=O)/C=C/c3ccc(F)cc3)cc12` . Does its fold induction at 30 µM lie strictly below 2?
Output: criterion not met

---

- System: SH-SY5Y cells
- protocol: Neuroprotection against rotenone/oligomycin A, pre-incubation model, MTT
- Type: cell-based
- experimental-conditions: Homo sapiens, compound 1 μM pre-incubation 24 h, then Rot/Olig (30/10 μM), read-out: % Survival
- Method: SH-SY5Y cells [ECACC 94030304], in 5 to 16 passage after defreezing were maintained in Eagle media modified by Dulbecco (DMEM) containing 15 non-essential amino acids and supplemented with 10% fetal bovine serum, 1 mM glutamine, 50 units/mL penicillin/streptomycin (obtained from GIBCO, Madrid, Spain). […] In order to assess cellular viability, we measured the metabolic reduction of 3-(4,5-Dimethylthiazol-2-yl)-2,5 diphenyltetrazolium bromide (MTT). […]
So I've got a bunch of molecules here, and I need their viability at 1 µM values.
Numbers only, in %.

Could I get viability at 1 µM for every one of these entries?
1. CC(=O)NCCc1c[nH]c2ccc(OC(=O)/C=C/c3ccc(O)cc3)cc12
2. CC(=O)NCCc1c[nH]c2ccc(OC(=O)/C=C/c3ccccc3)cc12
3. CC(=O)NCCc1c[nH]c2ccc(OC(=O)/C=C/c3ccc(Br)cc3)cc12
4. COc1ccc2[nH]cc(CCNC(C)=O)c2c1 [Melatonin, reference compound]
5. COc1cc(/C=C/C(=O)Oc2ccc3[nH]cc(CCNC(C)=O)c3c2)ccc1O

Output:
71.5
72.7
71.1
71.8
74

---

So I've got a bunch of compounds here, and I need their SH-SY5Y LD50 values.
- Test system: SH-SY5Y cells
- protocol: Toxicity in SH-SY5Y neuronal cell line, reduction of cell viability (MTT)
- Assay type: cell-based
- experimental-conditions: 24 h incubation, MTT, concentration reducing viability to 50% of basal

Here is how some compounds turned out for SH-SY5Y LD50.
CC(=O)NCCc1c[nH]c2ccc(OC(=O)/C=C/c3ccccc3)cc12 >100 µM
CC(=O)NCCc1c[nH]c2ccc(OC(=O)/C=C/c3ccc(O)cc3)cc12 >100 µM
COc1cc(/C=C/C(=O)Oc2ccc3[nH]cc(CCNC(C)=O)c3c2)ccc1O >100 µM
CC(=O)NCCc1c[nH]c2ccc(OC(=O)/C=C/c3cccc(C(F)(F)F)c3)cc12 >100 µM
CC(=O)NCCc1c[nH]c2ccc(OC(=O)/C=C/c3ccc(Cl)cc3)cc12 >100 µM

Could I get SH-SY5Y LD50 for every one of these entries?
1. C/C=C/C(=O)Oc1ccc2[nH]cc(CCNC(C)=O)c2c1
2. CC(=O)NCCc1c[nH]c2ccc(OC(=O)/C=C/c3ccc(F)cc3)cc12
3. CC(=O)NCCc1c[nH]c2ccc(OC(=O)/C=C/c3ccc([N+](=O)[O-])cc3)cc12
4. CC(=O)NCCc1c[nH]c2ccc(OC(=O)/C=C/c3ccccc3C(F)(F)F)cc12

Output:
[">100 µM", ">100 µM", ">100 µM", ">100 µM"]

---

So I've got a bunch of molecules here, and I need their fold induction at 60 µM values.
- System: Nrf2 transcription factor (Nrf2-ARE)
- protocol: Nrf2-ARE induction, luciferase activity in AREc32 (MCF7 cells stably transfected with ARE-LUC)
- Format: cell-based
- experimental-conditions: Homo sapiens, 60 μM, 24 h, basal = 1, read-out: Relative Luciferase activity (response versus basal)
Answers are plain numbers.

C/C=C/C(=O)Oc1ccc2[nH]cc(CCNC(C)=O)c2c1 30.7

Could I get fold induction at 60 µM for every one of these entries?
1. COc1ccccc1/C=C/C(=O)Oc1ccc2[nH]cc(CCNC(C)=O)c2c1
2. CC(=O)NCCc1c[nH]c2ccc(OC(=O)/C=C/c3ccc(C(F)(F)F)cc3)cc12
3. CC(=O)NCCc1c[nH]c2ccc(OC(=O)/C=C/c3ccc(Cl)c(Cl)c3)cc12

Output:
[2.53, 28.9, 2.12]
